Reported growth values follow for various compounds
# System: LOX IMVI melanoma
# protocol-text: NCI-60 one-dose screen, 48 h (100 = growth as untreated, 0 = no growth, -100 = all killed)
# study-conditions: 10 µM unless noted
# Method: Growth inhibition of the LOX IMVI human tumor cell line is measured as a screen for anti-cancer activity. Cells are grown in 96 well plates and exposed to the test compound for 48 hours. Compounds are tested at a single concentration, which is 10^-5 M for most compounds. The reported endpoint is percent growth (GI% or GIPRCNT), where numbers from 0 - 100% represent growth inhibition, and numbers from -100% - 0 represent cell death. For example, a value of 40 represents 60% growth inhibition. […]
This is part of a sample that, as a whole, favours compounds with a hit. Of some 83,000 tested, about 20% had one in any assay.
The response must be a number in % with no trailing unit.

Some solved entries appear below for comparison.
{"compound": "O=C(O)c1ccc2c(c1)nc(Nc1cccc(Cl)c1)c1ccncc12", "target-under-test": "LOX IMVI melanoma", "endpoint-label": "growth", "data-value": 7.77}
{"compound": "Cc1c(CN2CCN(C(=O)[C@H](C)O)CC2)sc2c(N3CCOCC3)nc(-c3cnc(N)nc3)nc12", "target-under-test": "LOX IMVI melanoma", "endpoint-label": "growth", "data-value": 0.99}
{"compound": "Fc1ccc(NCc2cn(-c3ccccc3)nc2-c2ccc(OCc3ccccc3)cc2)cc1Cl", "target-under-test": "LOX IMVI melanoma", "endpoint-label": "growth", "data-value": 96.7}

-- ask Query: growth; subject: COc1ccc(OC)c(NC2=C(SCCc3ccccc3)C(=O)c3ccccc3C2=O)c1
-- reply 66.4

-- ask Query: growth; subject: Cn1cnc(-c2cc3nccc(Oc4ccc(NC(=S)NC(=O)Cc5ccccc5)cc4F)c3s2)c1
-- reply 94.5

-- ask Query: growth; subject: Cc1ccc(N=C2CSc3nnc(-c4csc5c4CCCC5)n3N2)cc1
-- reply 46.3

-- ask Query: growth; subject: CC(=Nc1ccccc1)C1=C(O)C(Cc2ccccc2)NC1=O (stereo not given)
-- reply 18.5

###

# System: SF-268 CNS
# protocol-text: NCI-60 one-dose screen, 48 h (100 = growth as untreated, 0 = no growth, -100 = all killed)
# study-conditions: 10 µM unless noted
The panel holds about 83,000 compounds, 20% with a hit somewhere; the sample as a whole holds those more often.
endpoint-label: growth (%)
The response must be a number in % with no trailing unit.

Some solved entries appear below for comparison.
{"compound": "C#Cc1cccc(Nc2ncnc3cc(OCCOC)c(OCCOC)cc23)c1", "endpoint-label": "growth", "data-value": 62.9}
{"compound": "FC(F)(F)c1ccc(CNc2ccc(Cc3c[nH]c4ncc(Cl)cc34)cn2)cn1", "endpoint-label": "growth", "data-value": 27.7}

-- ask Query: growth; subject: CC(=O)C(C(C)=O)C(c1ccccc1)C(C(C)=O)C(C)=O
-- reply 108

-- ask Query: growth; subject: Cc1cc2c(-c3nc4ccccn4c3N)c(O)c(O)cc2c(O)c1-c1c(C)cc2c(-c3nc4ccccn4c3N)c(O)c(O)cc2c1O
-- reply 20.4

-- ask Query: growth; subject: Fc1ccc(NCc2cn(-c3ccccc3)nc2-c2ccc(OCc3ccccc3)cc2)cc1Cl
-- reply 92.2

-- ask Query: growth; subject: Cc1cccc(NC(=O)[C@@H]2c3ccccc3C(=O)N(c3ccc(Cl)cc3)[C@H]2c2ccc(Cl)cc2)n1
-- reply 62.8

-- ask Query: growth; subject: N#Cc1c(-c2ccc(C(F)(F)F)cc2)c(F)c(NCCC2CCC(O)C2)n2c1nc1ccccc12 (stereo not drawn)
-- reply 70.7

-- ask Query: growth; subject: Nc1c2c(c(O)c3c1=C(CO)C=N3)=NCCS2
-- reply -47.9
